- System: 786-0 renal
- Experiment Description: NCI tumour cell line growth inhibition, 48 h
Entries and their TGI
Measurement Name: TGI

compound=CCCCCCCCCCCCc1ccsc1-c1ccc(-c2ccc(-c3sc(-c4cc(CCCCCCCCCCCC)c(-c5ccc(-c6ccc(-c7sccc7CCCCCCCCCCCC)s6)s5)s4)cc3CCCCCCCCCCCC)s2)s1 measurement_name=TGI reported="> 100 µM"
compound=Cc1cc2c(O)c(c1)CN(Cc1ccccc1)Cc1cc(C)cc(c1O)CN(Cc1ccccc1)Cc1cc(C)cc(c1O)CN(Cc1ccccc1)C2 measurement_name=TGI reported="> 100 µM"
compound=CC(C)(C)/C(O)=C\c1nc2ccc(C(F)(F)F)cc2[nH]c1=O measurement_name=TGI reported="> 100 µM"
compound="CC1CCC2C(C)(C)CC3(C)CCC1C23O (centres undefined)" measurement_name=TGI reported="29 µM"

This collection of values is drawn from PubChem BioAssay (NCI).
